# Tested on: SK-MEL-2
# METHOD NOTES: NCI tumour cell line growth inhibition, 48 h
The source made the active and inactive calls. Rule as the data show it: active = GI50 up to about 1.1 µM and inactive = higher.
VALUE KIND: GI50

COP(=O)(OC)[C@@](O)(c1ccccc1)[C@@H](O)[C@@H](O)c1ccccc1: > 100 µM (inactive)
Cn1c(S)nc(C(N)=O)c1N: > 100 µM (inactive)
CCN1/C(=C/C#C/C(C)=C\c2sc3ccc(Cl)cc3[n+]2CC)Sc2ccc(Cl)cc21: 1.98 µM (inactive)
CN(C)CCN(C)C(=O)C1CCCN1C(=O)OCc1ccccc1 (stereo not given): > 100 µM (inactive)

*Q* State the recorded GI50 for this entry: CC(=O)C(CN(CC(C)C)CC(C)C)C(c1ccccc1)c1c(O)c2ccccc2oc1=O (stereo not given)
*A* > 100 µM (inactive)

*Q* State the recorded GI50 for this entry: O=C1Nc2ccccc2/C1=N/NC(=S)N1CCCCCC1
*A* 1.66 µM (inactive)

*Q* State the recorded GI50 for this entry: Cc1cc(S(=O)(=O)Nc2nc(N)n(-c3ccccc3)n2)c(S)cc1Cl
*A* > 100 µM (inactive)

*Q* State the recorded GI50 for this entry: Cc1ccsc1/C(S)=N\c1ccc(Cl)c(/C=N/OC(C)(C)C)c1
*A* 41.8 µM (inactive)

*Q* State the recorded GI50 for this entry: CCOC(=O)/C(C(=O)Nc1ccc(F)cc1)=C(/N)N1CCCC1
*A* > 100 µM (inactive)

*Q* State the recorded GI50 for this entry: COc1cc2c[n+](C)c3c4cc5c(cc4ccc3c2cc1OC)OCO5 [NITIDINE CHLORIDE]
*A* 2.68 µM (inactive)

* * *

Measured GI50 values are reported for all entries that follow.
# System: Malme-3M
# METHOD NOTES: NCI tumour cell line growth inhibition, 48 h
The source made the active and inactive calls. Cut-off read from the data, not from the text of the source: active = GI50 up to about 1.1 µM and inactive = higher.

COC(=O)c1ccccc1C1CN=NC12Cc1cc(C)ccc1C2=O (stereo not given): > 100 µM (inactive)
N/C(=N\O)N/N=C/c1cc(I)cc(I)c1O: 19.3 µM (inactive)
N#Cc1c(O)cc(=O)n2c1[nH]c1ccccc12: > 100 µM (inactive)

*Q* State the recorded GI50 for this entry: CCOC(=O)C1c2[nH]c3ccccc3c2CCN1C(=O)c1ccco1 (stereo not given)
*A* > 10 µM (inactive)

*Q* State the recorded GI50 for this entry: CCOC(=O)C1=C(Nc2cccc3ccccc23)OC/C1=N\NC(=O)c1ccccc1O
*A* 28.9 µM (inactive)

*Q* State the recorded GI50 for this entry: CC[C@H](C)C1=C(OC(C)=O)[N@+]2([O-])Oc3ccc(-c4c(O)c(O)c(-c5ccc(OC(C)=O)cc5)c(OC(C)=O)c4OC(C)=O)cc3O[C@]2([C@@H](C)CC)C(=O)N1O
*A* 16.6 µM (inactive)

*Q* State the recorded GI50 for this entry: Cc1c2ccncc2c(C)c2c1[nH]c1ccc(OCC(F)(F)F)cc12
*A* 1.73 µM (inactive)

*Q* State the recorded GI50 for this entry: CCOC(=O)N1CCN(C(=O)Nc2cccc3ccccc23)CC1
*A* > 10 µM (inactive)

*Q* State the recorded GI50 for this entry: Oc1cc(O)c(Oc2cccc(O)c2O)c(O)c1
*A* > 100 µM (inactive)

*Q* State the recorded GI50 for this entry: Cn1ccnc1SC(F)(F)c1nc2ccccc2o1
*A* > 100 µM (inactive)

* * *

Measured GI50 values are reported for all entries that follow.
# System: HL-60
# METHOD NOTES: NCI tumour cell line growth inhibition, 48 h
The source made the active and inactive calls. No stated cut-off is given here; in the data, active = GI50 up to about 1.1 µM and inactive = higher.

CC(=O)OC/C=C\Cn1nc(Br)c(=O)[nH]c1=O: 4.69 µM (inactive)
COc1ccc(N2CCN(c3ccc4c(c3)NCC(=O)N4)CC2)cc1: 17.1 µM (inactive)
COc1ccc2c(c1)CCC1=CC3(CCC12C)SCCS3 (stereo unspecified): 2.81 µM (inactive)
CCC(C#N)N(Cc1ccc(CN(C(=O)c2ccccc2)C(C#N)CC)cc1)C(=O)c1ccccc1 (stereo unspecified): 29.8 µM (inactive)
Cc1c2ccncc2c(C)c2c1[nH]c1ccc(OCC(F)(F)F)cc12: 2.08 µM (inactive)
CCCCNC(=S)N/C=C1\C(=O)Oc2ccccc2C1=O: 10 µM (inactive)
Oc1c(C2=N[C@H]3CCCC[C@@H]3N2)ccc2ccccc12: > 100 µM (inactive)
NC(C(F)(F)F)(C(F)(F)F)P(=O)(Cc1ccccc1)Cc1ccccc1: > 100 µM (inactive)

*Q* State the recorded GI50 for this entry: COc1ccc(C(O)(c2ccccc2)c2nccc3ccccc23)cc1 (stereo unspecified)
*A* 2.32 µM (inactive)

*Q* State the recorded GI50 for this entry: O=c1c2ncn(CCCl)c2n(-c2ccccc2)c(=S)n1-c1ccccc1
*A* > 100 µM (inactive)

*Q* State the recorded GI50 for this entry: COc1ccc2oc(=O)c(-c3nc4ccccc4o3)cc2c1
*A* 29.9 µM (inactive)

* * *

# System: HT-29
# METHOD NOTES: NCI tumour cell line growth inhibition, 48 h
Active and inactive are the calls of the source. Cut-off read from the data, not from the text of the source: active = GI50 up to about 1.1 µM and inactive = higher.
Measured GI50 values are reported for all entries that follow.

Cc1cn(C2CC(OC(c3ccccc3)(c3ccccc3)c3ccccc3)C(COC(c3ccccc3)(c3ccccc3)c3ccccc3)O2)c(=O)[nH]c1=O (centres undefined): 61 µM (inactive)
CCCCC1C(=O)N(c2ccc(S(=O)(=O)Nc3ccccn3)cc2)N(c2ccc(O)c(C(=O)O)c2)C1=O (centres undefined): > 100 µM (inactive)
CCNC(=O)N(CC)CN(CC)C(=O)NCC: > 100 µM (inactive)
c1ccc(C(C2=Nc3cccc4cccc(c34)N2)c2ccccc2)cc1: 23.2 µM (inactive)
COc1ccc(C2C3=C(COC3=O)Oc3cc4c(cc32)OCO4)cc1 (centres undefined): 3.81 µM (inactive)
CCNC(=O)c1cc(/C=C/c2ccc([N+](=O)[O-])o2)nc2ccccc12: 6.82 µM (inactive)
CC(C)C1=Cc2ccc3c(c2C(=O)C1=O)CCCC3(C)C: 20.1 µM (inactive)
Cc1ccc(NC(=O)C(=O)C2C(=O)N(c3ccccc3)N=C2N)cc1C (centres undefined): > 100 µM (inactive)

Okay, next one:
*Q* State the recorded GI50 for this entry: CN(Cc1cnc2nc(N)nc(N)c2n1)c1ccc(C(=O)NC(CCC(=O)NCC(P(=O)(O)O)P(=O)(O)O)C(=O)O)cc1 (centres undefined)
*A* 5.27 µM (inactive)

* * *

# Test system: MOLT-4
# METHOD NOTES: NCI tumour cell line growth inhibition, 48 h
Activity calls are given as the source filed them. Cut-off read from the data, not from the text of the source: active = GI50 up to about 1.1 µM and inactive = higher.
Respond with a class label; see active, inactive

COc1ccccc1/C=C\c1cc(OC)c(OC)c(OC)c1: inactive

*Q* Can you look up the reported call for CC12CCC(C/C1=N\NC(N)=O)C2(C)C (configuration not stated) for me?
*A* inactive

*Q* Can you look up the reported call for O=C(c1cccs1)N(Cc1cccnc1)C(=S)N(Cc1cccnc1)C(=O)c1cccs1 for me?
*A* inactive

*Q* Can you look up the reported call for COc1ccc(N2CCN(c3ccc4c(c3)NCC(=O)N4)CC2)cc1 for me?
*A* inactive

* * *

Measured GI50 values are reported for all entries that follow.
# Tested on: SF-268
# METHOD NOTES: NCI tumour cell line growth inhibition, 48 h
The source made the active and inactive calls. No stated cut-off is given here; in the data, active = GI50 up to about 1.1 µM and inactive = higher.

*Q* State the recorded GI50 for this entry: O=C1C=C2CCC[C@H]3OC(=O)C[C@@]23CC1
*A* > 100 µM (inactive)

*Q* State the recorded GI50 for this entry: COc1ccc2c(c1)[n+]([O-])c(-c1ccc(Cl)c(Cl)c1)c(N)[n+]2[O-]
*A* 37.1 µM (inactive)

*Q* State the recorded GI50 for this entry: OCc1ccc(-c2ccc(-c3ccc(CO)s3)o2)s1
*A* 49 µM (inactive)

* * *

# System: A498
# METHOD NOTES: NCI tumour cell line growth inhibition, 48 h
Activity calls are given as the source filed them. No stated cut-off is given here; in the data, active = GI50 up to about 1.1 µM and inactive = higher.
Respond with a class label; see Y = active, N = inactive

O=c1[nH]/c(=C/c2ccc(OCc3ccccc3)cn2)c(=O)[nH]/c1=C/c1ccc([N+](=O)[O-])cc1: N
Cc1cccc(N2C(=O)C(Cl)=C(Cl)C2=O)c1: N
Nc1nc(Cl)cc(Nc2cc(Cl)cc(Cl)c2)n1: N

*Q* Can you look up the reported call for Cc1cc(=O)oc2cc(OCc3c(F)cccc3Cl)ccc12 for me?
*A* N

*Q* Can you look up the reported call for CCCCCCCCCCC[N+]1(Cc2ccccc2)CC2CCN(Cc3ccccc3)CC2C1 (configuration not stated) for me?
*A* N

*Q* Can you look up the reported call for O=C1Nc2ccccc2/C1=N/NC(=S)N1CCCCCC1 for me?
*A* Y

*Q* Can you look up the reported call for CCOC(=O)c1csc(-c2cn(C)c3c2C(=O)C(OC)=CC3=O)n1 for me?
*A* N

* * *

# Test system: HL-60
# METHOD NOTES: NCI tumour cell line growth inhibition, 48 h
The source made the active and inactive calls. Rule as the data show it: active = GI50 up to about 1.1 µM and inactive = higher.
Respond with a class label; see active, inactive

Below are worked cases with known answers.
COc1ccc2[nH]c3c(C)c4ccnc(NCCCN(C)CCCNc5ccc6nnn7c8ccccc8c(=O)c5c67)c4c(C)c3c2c1: active
CCOC(=O)Cn1c(=O)c2nc(SC)sc2n(-c2ccc(C)cc2)c1=S: inactive
O=C1Oc2ccccc2C(=O)/C1=C/NC(=S)NCc1ccccc1: inactive
Cn1c2ccc(Cl)cc2c2ccc3c(c21)C(=O)C=CC3=O: inactive
COc1cc2c(cc1O)[C@@H]1Cc3c(cc(OC)c(OC)c3Oc3cc4c(cc3OC)CCN(C)[C@@H]4Cc3ccc(O)cc3)[C@H](C2)N1C: inactive
COc1ccccc1/C=C\c1cc(OC)c(OC)c(OC)c1: inactive

*Q* Can you look up the reported call for CC[C@H](C)C1=C(OC(C)=O)[N@+]2([O-])Oc3ccc(-c4c(O)c(O)c(-c5ccc(OC(C)=O)cc5)c(OC(C)=O)c4OC(C)=O)cc3O[C@]2([C@@H](C)CC)C(=O)N1O for me?
*A* inactive

*Q* Can you look up the reported call for N#CC(C#N)=Cc1ccc(CP(=O)(O)O)cc1 for me?
*A* inactive

*Q* Can you look up the reported call for COc1ccc(NC(=O)CC/C(CC(=O)c2ccco2)=N/Nc2ccc([N+](=O)[O-])cc2[N+](=O)[O-])cc1 for me?
*A* inactive

*Q* Can you look up the reported call for CCOC(=O)N1CCN(C(=O)Nc2cccc3ccccc23)CC1 for me?
*A* inactive

*Q* Can you look up the reported call for COc1ccc(-c2nc3ccccc3s2)cc1OC for me?
*A* inactive

*Q* Can you look up the reported call for OC1OC(c2ccco2)C(F)(F)C(F)(F)C1(F)F (stereo not given) for me?
*A* inactive

*Q* Can you look up the reported call for C#CCOCC12C=CC(O1)C1COC(=O)C12 (stereo not given) for me?
*A* inactive

*Q* Can you look up the reported call for COc1cc(/C=C/C(=O)O)ccc1C(=O)O/C=C/c1ccccc1 for me?
*A* inactive

*Q* Can you look up the reported call for C[N+]1(C)CC=C(N2CCOCC2)CC1 for me?
*A* inactive

*Q* Can you look up the reported call for CCCCCCCCCCCCCS(=O)(=O)NCC(N)=O for me?
*A* inactive

// data source = ChEMBL document CHEMBL1201862
